PROCEDURE SUMMARY: Drug interaction of sibutramine, clopidogrel, or chlorzoxazone with sauchinone in mice (plasma pharmacokinetics)
CONDITION NOTES: male, ICR, mouse, in vivo, po
OBSERVED PROPERTY: Tmax

So for CC(C)CC(N(C)C)C1(c2ccc(Cl)cc2)CCC1 (stereo not shown) , the logged Tmax turned out to be 15 min

###

TARGET ENTITY: CYP3A4 (Homo sapiens)
Construct: pooled human liver microsomes from a mixed pool of 50 donors; tissue BD Gentest Co. 452156; host or cells: human liver microsomes, pool of 50 donors
Sequence (P08684 whole entry): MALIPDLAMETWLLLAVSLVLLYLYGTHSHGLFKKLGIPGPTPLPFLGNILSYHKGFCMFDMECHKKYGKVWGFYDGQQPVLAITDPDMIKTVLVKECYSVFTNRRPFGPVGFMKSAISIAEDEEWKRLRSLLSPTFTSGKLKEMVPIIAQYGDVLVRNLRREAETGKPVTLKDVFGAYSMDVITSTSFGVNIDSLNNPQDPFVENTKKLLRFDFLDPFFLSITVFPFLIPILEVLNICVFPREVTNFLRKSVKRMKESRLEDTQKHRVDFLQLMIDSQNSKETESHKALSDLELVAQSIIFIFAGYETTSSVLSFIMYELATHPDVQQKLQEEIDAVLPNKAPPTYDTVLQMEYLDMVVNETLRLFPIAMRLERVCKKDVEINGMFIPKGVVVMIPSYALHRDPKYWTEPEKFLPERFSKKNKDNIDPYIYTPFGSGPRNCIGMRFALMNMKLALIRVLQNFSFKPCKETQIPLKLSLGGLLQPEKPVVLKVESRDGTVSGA
PROCEDURE SUMMARY: Time-dependent inhibition (TDI) IC50 shift assay on CYP3A4 in HLMs
Format: in vitro ADME
CONDITION NOTES: HLMs; 0 min pre-incubation with NADPH; 10 min incubation; read-out: IC50 on CYP3A4, 0 min inactivation incubation (TDI)
OBSERVED PROPERTY: pIC50
Quick note: pIC50 means taking -log10 of the concentration in moles per liter.

Record for C[C@@H]1[C@H]2c3cc4c(cc3O[C@@]35OCOC3=CC(=O)[C@H](C[C@H]1C)[C@@H]25)OCO4 under target or system CYP3A4 (Homo sapiens): pIC50 reported as 4.61

###

TARGET ENTITY: CYP2C19 (Homo sapiens, UniProt P33261)
Construct: pooled human liver microsomes from a mixed pool of 50 donors; tissue BD Gentest Co. 452156; host or cells: human liver microsomes, pool of 50 donors
Sequence (P33261 whole entry): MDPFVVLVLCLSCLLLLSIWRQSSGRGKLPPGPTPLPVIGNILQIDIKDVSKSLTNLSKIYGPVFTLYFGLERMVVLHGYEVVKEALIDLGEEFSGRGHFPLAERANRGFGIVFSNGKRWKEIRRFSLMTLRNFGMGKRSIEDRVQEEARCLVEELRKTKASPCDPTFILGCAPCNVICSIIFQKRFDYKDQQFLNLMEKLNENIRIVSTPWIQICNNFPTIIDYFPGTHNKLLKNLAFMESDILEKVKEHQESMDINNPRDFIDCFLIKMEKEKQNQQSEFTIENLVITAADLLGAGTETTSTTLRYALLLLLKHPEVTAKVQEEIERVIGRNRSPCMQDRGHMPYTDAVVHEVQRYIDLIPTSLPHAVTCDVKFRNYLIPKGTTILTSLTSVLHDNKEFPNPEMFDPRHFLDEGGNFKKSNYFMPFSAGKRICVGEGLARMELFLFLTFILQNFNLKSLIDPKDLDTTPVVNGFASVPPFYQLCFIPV
PROCEDURE SUMMARY: Time-dependent inhibition (TDI) IC50 shift assay on CYP2C19 in HLMs
Type: in vitro ADME
CONDITION NOTES: IC50 on CYP2C19, 30 min inactivation incubation (TDI), HLMs; 30 min pre-incubation with NADPH; 10 min incubation
OBSERVED PROPERTY: pIC50
The meaning of pIC50 here: minus log10 of the concentration in molar units.

pIC50 reported for this molecule C[C@@H]1[C@H]2c3cc4c(cc3O[C@@]35OCOC3=CC(=O)[C@H](C[C@H]1C)[C@@H]25)OCO4 [Sauchinone] : 4.71

###

TARGET ENTITY: CYP1A2 (Homo sapiens, UniProt P05177)
Sequence (P05177 whole entry): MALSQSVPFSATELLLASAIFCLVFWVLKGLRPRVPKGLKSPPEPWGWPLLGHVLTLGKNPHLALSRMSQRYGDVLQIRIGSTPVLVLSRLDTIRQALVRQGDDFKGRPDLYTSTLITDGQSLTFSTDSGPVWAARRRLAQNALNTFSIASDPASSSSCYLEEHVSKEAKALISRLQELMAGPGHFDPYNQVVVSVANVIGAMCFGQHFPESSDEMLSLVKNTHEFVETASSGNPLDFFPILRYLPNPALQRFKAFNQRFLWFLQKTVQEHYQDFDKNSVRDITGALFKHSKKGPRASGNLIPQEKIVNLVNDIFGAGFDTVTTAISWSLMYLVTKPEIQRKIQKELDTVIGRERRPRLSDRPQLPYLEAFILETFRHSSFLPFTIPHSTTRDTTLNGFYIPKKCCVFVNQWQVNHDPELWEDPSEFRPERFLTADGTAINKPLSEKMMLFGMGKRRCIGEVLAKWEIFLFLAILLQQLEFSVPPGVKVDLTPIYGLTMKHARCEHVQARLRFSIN
PROCEDURE SUMMARY: Reversible inhibition (RI) of CYP1A2 activity in HLMs (cocktail probe assay)
pIC50: −log10 of the molar value.
OBSERVED PROPERTY: pIC50

C[C@@H]1[C@H]2c3cc4c(cc3O[C@@]35OCOC3=CC(=O)[C@H](C[C@H]1C)[C@@H]25)OCO4 [Sauchinone] has a reported pIC50 of < 3.52

###

TARGET ENTITY: CYP2C19 (Homo sapiens, UniProt P33261)
Construct: pooled human liver microsomes from a mixed pool of 50 donors; tissue BD Gentest Co. 452156; host or cells: human liver microsomes, pool of 50 donors
PROCEDURE SUMMARY: Time-dependent inhibition (TDI) IC50 shift assay on CYP2C19 in HLMs
Assay type: in vitro ADME
CONDITION NOTES: HLMs; 0 min pre-incubation with NADPH; 10 min incubation; read-out: IC50 on CYP2C19, 0 min inactivation incubation (TDI)
OBSERVED PROPERTY: pIC50
Please report pIC50 as the negative decimal logarithm of the molar concentration, giving only the number.

pIC50 for C[C@@H]1[C@H]2c3cc4c(cc3O[C@@]35OCOC3=CC(=O)[C@H](C[C@H]1C)[C@@H]25)OCO4 is 4.55

###

PROCEDURE SUMMARY: in vivo
CONDITION NOTES: male, ICR, mouse, po
OBSERVED PROPERTY: half-life
Please answer using a numeric value trailed by its unit.

half-life reading for COC(=O)[C@H](c1ccccc1Cl)N1CCc2sccc2C1 : 1.77 h

###

TARGET ENTITY: CYP2C9 (Homo sapiens, UniProt P11712)
Construct: pooled human liver microsomes from a mixed pool of 50 donors; tissue BD Gentest Co. 452156; host or cells: human liver microsomes, pool of 50 donors
Sequence (P11712 whole entry): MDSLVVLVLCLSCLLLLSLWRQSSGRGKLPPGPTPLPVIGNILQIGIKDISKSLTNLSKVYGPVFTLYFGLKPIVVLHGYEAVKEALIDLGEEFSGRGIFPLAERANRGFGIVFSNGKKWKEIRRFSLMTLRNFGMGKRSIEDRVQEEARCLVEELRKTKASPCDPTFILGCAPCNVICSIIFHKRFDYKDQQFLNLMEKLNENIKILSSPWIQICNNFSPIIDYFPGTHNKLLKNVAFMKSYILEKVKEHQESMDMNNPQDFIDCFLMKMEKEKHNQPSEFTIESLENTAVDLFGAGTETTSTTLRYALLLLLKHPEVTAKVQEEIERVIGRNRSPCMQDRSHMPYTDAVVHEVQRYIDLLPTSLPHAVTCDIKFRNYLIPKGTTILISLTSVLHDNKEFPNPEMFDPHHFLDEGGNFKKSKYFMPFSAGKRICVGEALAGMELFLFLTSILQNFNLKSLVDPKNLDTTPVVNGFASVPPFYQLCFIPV
PROCEDURE SUMMARY: Reversible inhibition (RI) of CYP2C9 activity in HLMs (cocktail probe assay)
Type: in vitro ADME
CONDITION NOTES: 100 μM tolbutamide, 30 min incubation
OBSERVED PROPERTY: IC50

Tested on CYP2C9 (Homo sapiens, UniProt P11712), the item C[C@@H]1[C@H]2c3cc4c(cc3O[C@@]35OCOC3=CC(=O)[C@H](C[C@H]1C)[C@@H]25)OCO4 showed IC50 equal to > 300 µM

###

TARGET ENTITY: CYP2C19 (Homo sapiens)
OBSERVED PROPERTY: Ki (µM)
Answer with a number only, understood to be in µM.

// Ki value for C[C@@H]1[C@H]2c3cc4c(cc3O[C@@]35OCOC3=CC(=O)[C@H](C[C@H]1C)[C@@H]25)OCO4 : 16.8

###

PROCEDURE SUMMARY: in vivo
CONDITION NOTES: male, ICR, mouse
OBSERVED PROPERTY: Tmax

Tmax in this record for COC(=O)[C@H](c1ccccc1Cl)N1CCc2sccc2C1 [Clopidogrel, clopidogrel] : 15 min

###

TARGET ENTITY: CYP2E1 (Homo sapiens)
Construct: pooled human liver microsomes from a mixed pool of 50 donors; tissue BD Gentest Co. 452156; host or cells: human liver microsomes, pool of 50 donors
Sequence (P05181 whole entry): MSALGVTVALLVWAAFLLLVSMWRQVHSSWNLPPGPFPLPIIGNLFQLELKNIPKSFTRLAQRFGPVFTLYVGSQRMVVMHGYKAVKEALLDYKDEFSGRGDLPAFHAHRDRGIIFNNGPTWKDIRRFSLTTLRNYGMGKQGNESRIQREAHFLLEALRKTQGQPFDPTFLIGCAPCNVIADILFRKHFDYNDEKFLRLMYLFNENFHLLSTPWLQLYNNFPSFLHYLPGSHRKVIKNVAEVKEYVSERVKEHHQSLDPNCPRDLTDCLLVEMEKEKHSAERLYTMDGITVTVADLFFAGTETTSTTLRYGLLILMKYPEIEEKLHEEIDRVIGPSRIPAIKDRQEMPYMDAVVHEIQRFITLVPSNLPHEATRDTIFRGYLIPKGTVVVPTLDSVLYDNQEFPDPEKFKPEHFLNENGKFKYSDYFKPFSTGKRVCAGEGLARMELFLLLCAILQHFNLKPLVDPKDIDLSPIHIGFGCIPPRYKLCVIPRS
PROCEDURE SUMMARY: Time-dependent inhibition (TDI) IC50 shift assay on CYP2E1 in HLMs
Format: in vitro ADME
CONDITION NOTES: HLMs; 0 min pre-incubation with NADPH; 10 min incubation; read-out: IC50 on CYP2E1, 0 min inactivation incubation (TDI)
OBSERVED PROPERTY: pIC50
Give only the number. pIC50 is defined as minus log10 of concentration in molar units.

// sample C[C@@H]1[C@H]2c3cc4c(cc3O[C@@]35OCOC3=CC(=O)[C@H](C[C@H]1C)[C@@H]25)OCO4 , its pIC50 was 3.98

###

PROCEDURE SUMMARY: Drug interaction of sibutramine, clopidogrel, or chlorzoxazone with sauchinone in mice (plasma pharmacokinetics)
CONDITION NOTES: male, ICR, mouse, in vivo, po, AUC, mice, plasma; without sauchinone (vehicle); 1 mg/kg sibutramine, 10 mg/kg clopidogrel or 10 mg/kg chlorzoxazone; oral administration per Table 3
OBSERVED PROPERTY: AUC (ng·h/mL)
Numbers only; they are read as ng·h/mL.

AUC recorded for this compound, CC(C)CC(N(C)C)C1(c2ccc(Cl)cc2)CCC1 (stereo not shown) , is 66300

###

PROCEDURE SUMMARY: Drug interaction of sibutramine, clopidogrel, or chlorzoxazone with sauchinone in mice (plasma pharmacokinetics)
CONDITION NOTES: male, ICR, mouse, in vivo
OBSERVED PROPERTY: CL/F (mL/min/kg)
I only need the number, in mL/min/kg, no unit after it.

CL/F for CC(C)CC(N(C)C)C1(c2ccc(Cl)cc2)CCC1 (stereo not shown) [Sibutramine, sibutramine] is 0.253

###

TARGET ENTITY: CYP2A6 (Homo sapiens, UniProt P11509)
Sequence (P11509 whole entry): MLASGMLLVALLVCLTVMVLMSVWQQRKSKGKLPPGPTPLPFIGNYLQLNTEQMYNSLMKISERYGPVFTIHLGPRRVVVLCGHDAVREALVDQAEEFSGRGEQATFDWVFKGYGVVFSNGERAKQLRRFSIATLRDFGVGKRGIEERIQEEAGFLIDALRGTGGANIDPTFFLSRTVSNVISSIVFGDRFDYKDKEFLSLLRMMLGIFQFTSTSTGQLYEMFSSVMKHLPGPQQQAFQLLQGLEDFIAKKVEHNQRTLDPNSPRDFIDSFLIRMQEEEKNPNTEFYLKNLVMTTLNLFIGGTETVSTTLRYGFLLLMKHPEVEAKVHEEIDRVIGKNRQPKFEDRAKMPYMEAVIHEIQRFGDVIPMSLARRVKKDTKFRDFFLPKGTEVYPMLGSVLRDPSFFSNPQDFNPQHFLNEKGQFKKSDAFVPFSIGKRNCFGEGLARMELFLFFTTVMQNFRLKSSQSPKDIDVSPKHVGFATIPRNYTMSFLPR
PROCEDURE SUMMARY: Reversible inhibition (RI) of CYP2A6 activity in HLMs (cocktail probe assay)
CONDITION NOTES: read-out: IC50 on CYP2A6 activity (RI); HLMs; reversible inhibition; 5 μM coumarin; 30 min incubation; inhibitor 0–300 μM
OBSERVED PROPERTY: pIC50
Schema: pIC50 number; meaning minus log10 of the concentration expressed in molar units.

Recorded result, N[C@@H]1C[C@H]1c1ccccc1 (racemic) [tranylcypromine, reference compound] , pIC50: 5.70

###

TARGET ENTITY: CYP1A2 (Homo sapiens, UniProt P05177)
PROCEDURE SUMMARY: Time-dependent inhibition (TDI) IC50 shift assay on CYP1A2 in HLMs
Assay type: in vitro ADME
Parameters: […]; tissue BD Gentest Co. 452156
CONDITION NOTES: IC50 on CYP1A2, 30 min inactivation incubation (TDI), 30 min pre-incubation with NADPH, 10 min incubation
pIC50: −log10 of the molar value.
OBSERVED PROPERTY: pIC50

Given item C[C@@H]1[C@H]2c3cc4c(cc3O[C@@]35OCOC3=CC(=O)[C@H](C[C@H]1C)[C@@H]25)OCO4 , the value recorded as its pIC50 is < 3.52

###

TARGET ENTITY: CYP2D6 (Homo sapiens)
Construct: pooled human liver microsomes from a mixed pool of 50 donors; tissue BD Gentest Co. 452156; host or cells: human liver microsomes, pool of 50 donors
Sequence (P10635 whole entry): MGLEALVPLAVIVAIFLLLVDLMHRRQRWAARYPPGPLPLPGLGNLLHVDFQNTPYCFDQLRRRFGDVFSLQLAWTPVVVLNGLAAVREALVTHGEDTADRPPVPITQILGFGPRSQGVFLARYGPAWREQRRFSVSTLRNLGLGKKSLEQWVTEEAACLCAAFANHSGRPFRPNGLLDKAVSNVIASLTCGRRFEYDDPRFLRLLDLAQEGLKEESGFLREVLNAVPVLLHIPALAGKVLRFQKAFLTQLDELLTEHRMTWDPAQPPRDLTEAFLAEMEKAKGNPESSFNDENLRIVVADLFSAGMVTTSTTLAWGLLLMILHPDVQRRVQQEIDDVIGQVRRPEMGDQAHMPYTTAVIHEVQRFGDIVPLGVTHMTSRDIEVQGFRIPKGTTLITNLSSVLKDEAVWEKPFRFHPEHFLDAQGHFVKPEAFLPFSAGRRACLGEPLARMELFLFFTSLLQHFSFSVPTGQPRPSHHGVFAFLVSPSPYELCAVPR
PROCEDURE SUMMARY: Time-dependent inhibition (TDI) IC50 shift assay on CYP2D6 in HLMs
Type: in vitro ADME
CONDITION NOTES: read-out: IC50 on CYP2D6, 30 min inactivation incubation (TDI), 30 min pre-incubation with NADPH, 10 min incubation
OBSERVED PROPERTY: IC50

Lab book: IC50 of C[C@@H]1[C@H]2c3cc4c(cc3O[C@@]35OCOC3=CC(=O)[C@H](C[C@H]1C)[C@@H]25)OCO4 noted as > 300 µM
